Values were extracted from paper PMC4836387.

Measured pIC50 on HIV-1 IN (Human immunodeficiency virus type 1 group M subtype B) follows.
pIC50: −log10 of the molar value.
value type: pIC50

Nc1c(C(=O)NCc2ccc(F)cc2F)c(=O)n(O)c2ncc(CCCCCCCCO)cc12 ... 8.30
Nc1c(C(=O)NCc2ccc(F)cc2F)c(=O)n(O)c2ncc(CCCO)cc12 ... 7.96

* * *

tested on: HIV-1 vector carrying IN mutant G118R; assay: single-round HIV-1 infectivity assay, G118R IN; format: cell-based; details: Human immunodeficiency virus 1, read-out: EC50 G118R
value type: EC50 (nM)

Nc1c(C(=O)NCc2ccc(F)cc2F)c(=O)n(O)c2ncc(CCCCCO)cc12 ... 5.3
Nc1c(C(=O)NCc2ccc(F)cc2F)c(=O)n(O)c2ncc(CCCCCCO)cc12 ... 6.4
COc1cc2c(cc1Cc1cccc(Cl)c1F)c(=O)c(C(=O)O)cn2[C@H](CO)C(C)C [compound 2, elvitegravir, reference compound] ... 21
Nc1c(C(=O)NCc2ccc(F)cc2F)c(=O)n(O)c2ncc(CCS(=O)(=O)c3ccccc3)cc12 ... 11.4
Nc1c(C(=O)NCc2ccc(F)cc2F)c(=O)n(O)c2ncc(CCCCCCCCO)cc12 ... 11
Nc1c(C(=O)NCc2ccc(F)cc2F)c(=O)n(O)c2ncc(CCCO)cc12 ... 10
